# Solubility, Volume (at 10-20° C.) annotations
Experiment: Solubility of Compound 1 salts in organic solvents (solvent volumes)
Assay type: physicochemical
Details: Toluene
Protocol: Preparation of Additional Salts: Additional salts shown in the Table below were prepared using procedures similar to those described above and the solubility of the resulting salts of Compound 1 was evaluated.
Counter-ions that a name gives are not always drawn.

Recorded Solubility, Volume (at 10-20° C.), per entry:
CCn1nc(Cl)c2c1-c1cnc(N)c(c1)O[C@H](C)c1cc(F)ccc1-c1nn(C)cc1C2 [MSA salt]	>400 V
CCn1nc(Cl)c2c1-c1cnc(N)c(c1)O[C@H](C)c1cc(F)ccc1-c1nn(C)cc1C2 [L-Tartaric Acid Salt]	>400 V
CCn1nc(Cl)c2c1-c1cnc(N)c(c1)O[C@H](C)c1cc(F)ccc1-c1nn(C)cc1C2 [H3PO4 salt]	>400 V
CCn1nc(Cl)c2c1-c1cnc(N)c(c1)O[C@H](C)c1cc(F)ccc1-c1nn(C)cc1C2 [Salicylic acid salt]	320-360 V
CCn1nc(Cl)c2c1-c1cnc(N)c(c1)O[C@H](C)c1cc(F)ccc1-c1nn(C)cc1C2 [Maleic Acid salt]	>400 V
CCn1nc(Cl)c2c1-c1cnc(N)c(c1)O[C@H](C)c1cc(F)ccc1-c1nn(C)cc1C2 [Fumaric Acid salt]	>400 V
CCn1nc(Cl)c2c1-c1cnc(N)c(c1)O[C@H](C)c1cc(F)ccc1-c1nn(C)cc1C2 [TsOH salt]	>400 V
CCn1nc(Cl)c2c1-c1cnc(N)c(c1)O[C@H](C)c1cc(F)ccc1-c1nn(C)cc1C2 [HCl salt]	>400 V

Could you now consider this next compound?
Recorded Solubility, Volume (at 10-20° C.) for CCn1nc(Cl)c2c1-c1cnc(N)c(c1)O[C@H](C)c1cc(F)ccc1-c1nn(C)cc1C2 [Citric Acid salt] , please?
>400 V

---

assay: Solubility of Compound 1 salts in organic solvents (solvent volumes); type: physicochemical; conditions: t-AmOH
Counter-ions that a name gives are not always drawn.
# Solubility, Volume (at 10-20° C.) annotations

Recorded Solubility, Volume (at 10-20° C.), per entry:
CCn1nc(Cl)c2c1-c1cnc(N)c(c1)O[C@H](C)c1cc(F)ccc1-c1nn(C)cc1C2 [TsOH salt]	>400 V
CCn1nc(Cl)c2c1-c1cnc(N)c(c1)O[C@H](C)c1cc(F)ccc1-c1nn(C)cc1C2 [MSA salt]	340-360 V

Recorded Solubility, Volume (at 10-20° C.) for CCn1nc(Cl)c2c1-c1cnc(N)c(c1)O[C@H](C)c1cc(F)ccc1-c1nn(C)cc1C2 [H3PO4 salt] , please?
>400 V

Recorded Solubility, Volume (at 10-20° C.) for CCn1nc(Cl)c2c1-c1cnc(N)c(c1)O[C@H](C)c1cc(F)ccc1-c1nn(C)cc1C2 [L-Tartaric Acid Salt] , please?
18-20 V

Recorded Solubility, Volume (at 10-20° C.) for CCn1nc(Cl)c2c1-c1cnc(N)c(c1)O[C@H](C)c1cc(F)ccc1-c1nn(C)cc1C2 [Fumaric Acid salt] , please?
22-24 V

Recorded Solubility, Volume (at 10-20° C.) for CCn1nc(Cl)c2c1-c1cnc(N)c(c1)O[C@H](C)c1cc(F)ccc1-c1nn(C)cc1C2 [Salicylic acid salt] , please?
>400 V

---

assay: Solubility of Compound 1 salts in organic solvents (solvent volumes); format: physicochemical; conditions: Acetone
Where a name gives a salt, the structure may show the parent alone.
measurement-label: Solubility, Volume (at 10-20° C.)

CCn1nc(Cl)c2c1-c1cnc(N)c(c1)O[C@H](C)c1cc(F)ccc1-c1nn(C)cc1C2 [MSA salt]	56-60 V

Recorded Solubility, Volume (at 10-20° C.) for CCn1nc(Cl)c2c1-c1cnc(N)c(c1)O[C@H](C)c1cc(F)ccc1-c1nn(C)cc1C2 [Fumaric Acid salt] , please?
8-10 V

Recorded Solubility, Volume (at 10-20° C.) for CCn1nc(Cl)c2c1-c1cnc(N)c(c1)O[C@H](C)c1cc(F)ccc1-c1nn(C)cc1C2 [Citric Acid salt] , please?
6-8 V

Recorded Solubility, Volume (at 10-20° C.) for CCn1nc(Cl)c2c1-c1cnc(N)c(c1)O[C@H](C)c1cc(F)ccc1-c1nn(C)cc1C2 [Salicylic acid salt] , please?
26-28 V

Recorded Solubility, Volume (at 10-20° C.) for CCn1nc(Cl)c2c1-c1cnc(N)c(c1)O[C@H](C)c1cc(F)ccc1-c1nn(C)cc1C2 [TsOH salt] , please?
10-12 V

Recorded Solubility, Volume (at 10-20° C.) for CCn1nc(Cl)c2c1-c1cnc(N)c(c1)O[C@H](C)c1cc(F)ccc1-c1nn(C)cc1C2 [H3PO4 salt] , please?
58-60 V

Recorded Solubility, Volume (at 10-20° C.) for CCn1nc(Cl)c2c1-c1cnc(N)c(c1)O[C@H](C)c1cc(F)ccc1-c1nn(C)cc1C2 [L-Tartaric Acid Salt] , please?
2-4 V

Recorded Solubility, Volume (at 10-20° C.) for CCn1nc(Cl)c2c1-c1cnc(N)c(c1)O[C@H](C)c1cc(F)ccc1-c1nn(C)cc1C2 [HCl salt] , please?
22-24 V

Recorded Solubility, Volume (at 10-20° C.) for CCn1nc(Cl)c2c1-c1cnc(N)c(c1)O[C@H](C)c1cc(F)ccc1-c1nn(C)cc1C2 [Maleic Acid salt] , please?
2-4 V
